# Test system: HCC-2998 colon
# experimental protocol: NCI tumour cell line growth inhibition, 48 h
result type: TGI (µM)

compound	bound operator	quantitative readout
C=CCOCCCC(=O)C(=[N+]=[N-])C(=O)OC	>	100
CC(=O)[CH-]C(C)=O.CC(=O)[CH-]C(C)=O.CC(=O)[CH-]C(C)=O.[Cl-].[Hf+4]	>	100
COc1cc2c3c(n(CCCn4ccnc4)c(=O)c2cc1OC)-c1ccccc1C3=O	=	0.504
CCC[CH2][Sn]([CH2]CCC)([O]C(=O)c1cccc(F)c1F)[O][Sn]([CH2]CCC)([CH2]CCC)[O]C(=O)c1cccc(F)c1F	=	1.92
CC1N(O)C(c2ccccc2)C(c2ccccc2)=[N+]1[O-] (stereo not given)	>	100
C=C1C(=O)O[C@H]2[C@H]1CC/C(COC(=O)NCCc1c[nH]c3ccccc13)=C\CC[C@@]1(C)O[C@@H]21	=	3.18
Cc1ccc(-c2nc3nc(-c4ccc(Cl)cc4)nc(N4CCCNCC4)c3o2)cc1	=	3.54
Cc1cc(Cl)ccc1NC(=O)/C(CC(=O)CC(c1ccccc1)c1c(O)c2ccccc2oc1=O)=N\O (stereo not given)	>	100
Cc1cccc(NC(=O)CSc2nnc(Cc3ccccc3)o2)c1	>	100
NC(=S)N/N=C1\C(=O)N(c2cccc([N+](=O)[O-])c2)C(=O)C1C(=O)Nc1cccc([N+](=O)[O-])c1 (stereo not given)	>	100
CC1(C)C[C@H]2C3=CC[C@@H]4[C@@]5(C)CC[C@H](O)C(C)(C)[C@@H]5CC[C@@]4(C)[C@]3(C)C[C@@H](O)[C@@]23C[C@@H]1OC3=O	>	100
CCOC(=O)C1=C(C)C2C3C(=O)NC(=O)C3C1(C)C1C(=O)NC(=O)C21 (stereo not given)	>	100
CCN(CC)CCN1CCN=c2c3cc(OC)ccc3n3cnc4ccc1c2c43	=	2.13
COc1ccc(/C(Cl)=C(\C=O)c2cc(OC)c(OC)c(OC)c2)cc1OC	>	100
C[C@]12CC[C@H]3[C@@H](CC=C4C[C@@H](O)CC[C@@]43C)[C@@H]1C/C(=C\c1cccc(OCCCn3ccnc3)c1)[C@@H]2O	=	34.1
O=C(Nc1ccc(N=Nc2ccccc2)cc1)Sc1ccccc1C(=O)O	>	100
O=C(/C=C/c1c(O)c2ccccc2[nH]c1=O)CC(=O)C(=O)Nc1cccc(O)c1	>	100
S=C(NCCCCCCNC(=S)Nc1c2ccccc2nc2ccccc12)Nc1c2ccccc2nc2ccccc12	>	100
CCOC(=O)c1ccc2[nH]c(Cc3[nH]c4ccc(C(=O)OCC)cc4c3C)c(C)c2c1	=	59.3
N#C/C(=C\c1ccc(Br)cc1)n1nnc2cc(F)c(F)cc21	=	3.67
O=S(=O)([N-]c1nc2ccccc2nc1-[n+]1ccccc1)c1ccccc1	>	100
O=C(O)C(Cc1ccccc1)N1C(=O)c2ccccc2C1=O (stereo not given)	>	100
c1ccc2c(NCCCCCCCCNc3cccc4ccccc34)cccc2c1	>	100
Cc1nn(-c2ccccc2)c2nc3c(c(C)nn3-c3ccccc3)c(-c3ccccc3Br)c12	>	100
O=C1OC(c2ccccc2)=N/C1=C/c1cccs1	>	100
CC1=C(N(C)C)C(=O)c2nc3n(c2C1=O)CCC3OC(N)=O (stereo not given)	=	34.7
COc1ccc(C(=O)c2ccc(OC)cc2OC)cc1	=	41.3
CCC(=O)Nc1ccc2c(c1)CN1C(=O)c3ccccc3C1=N2	>	100
Fc1ccc(Nc2ccc3cc(OCCCN4CCOCC4)ccc3n2)cc1F	=	4.42
COc1ccc(-c2cc(=O)c3c(O)c(OC)c(O)cc3o2)cc1O	>	100
c1ccc2c(OCC3CO3)ccc(OCC3CO3)c2c1 (stereo not given)	=	24.1
Cc1cc(S(=O)(=O)/N=C(\N)n2nc(C)c(C)c2C)c(SCc2ccccc2)cc1Cl	>	100
N#CC(c1ccc(Cl)cc1)c1cccc(Cl)n1 (stereo not given)	>	100
COc1ccc2c(c1)-c1c(c3ccccc3n1CCN1CCCCC1)CC2	=	19.2
C=C1C(=O)O[C@H]2[C@H]1CC/C(Cn1cc(Cn3ccc4cc(Cl)ccc43)nn1)=C\CC[C@@]1(C)O[C@@H]21	=	3.92
COc1ccc2c(c1)C(=O)c1c-2c(N2CCN(C(=O)CN(C)C)CC2)nc2ccccc12	=	40.5
Cc1ccc(C2=NN(C)COC2C(F)(F)F)cc1 (stereo not given)	>	100
N#C/C(=C\c1ccc(Cl)cc1)n1nnc2cc(F)c(F)cc21	=	3.29
O=C(c1cccs1)c1c(C(F)(F)F)n([O-])c2cc(C(F)(F)F)ccc2[n+]1=O	=	0.85
CN1CCC23c4ccccc4NC1C21CCN(C)C3Nc2ccccc21	>	375

###

# System: 786-0 renal
# experimental protocol: NCI tumour cell line growth inhibition, 48 h
Returns MET if the recorded TGI is greater than or equal to 10 µM, and NOT MET otherwise.

molecule	tested target	discrete label
CC(=O)OCCC[C@@H]1C(=C(C)C)CCC2[C@@]1(C)CC[C@@]1(C)C[C@](C)(CCC=C(C)C)CC[C@]21C (stereo partly specified)	786-0 renal	MET
O=C(/C=C\c1cccc2ccccc12)c1ccc(Br)cc1	786-0 renal	MET
CCOC(=O)c1c(-c2ccc(Cl)cc2)c(C#N)c(=S)n(C2OC(CO)C(O)C(O)C2O)c1-c1ccccc1 (stereo unspecified)	786-0 renal	MET
N#Cc1c(SCc2ccccc2)nc2[nH]c(=S)[nH]c(=S)c2c1-c1ccco1	786-0 renal	MET
CCOC(=O)Cc1nc2nn(Cc3ccccc3)cc2c(=O)[nH]1	786-0 renal	MET
CC(C)CC(NC(=O)OCc1ccccc1)C(=O)NCCCCC(N)C(=O)NC(CCCCNC(=O)C(CC(C)C)NC(=O)OCc1ccccc1)C(=O)NC(CCCCNC(=O)C(CC(C)C)NC(=O)OCc1ccccc1)C(=O)NC(CCCCNC(=O)C(CC(C)C)NC(=O)OCc1ccccc1)C(=O)NC(CCCCNC(=O)C(CC(C)C)NC(=O)OCc1ccccc1)C(=O)NC(CCCCNC(=O)C(CC(C)C)NC(=O)OCc1ccccc1)C(=O)O (stereo unspecified)	786-0 renal	MET
O=C(/C=C/C12c3ccccc3C(c3ccccc31)C1C(=O)NC(=O)C12)c1ccco1 (stereo unspecified)	786-0 renal	MET
c1ccc2c(OCC3CO3)ccc(OCC3CO3)c2c1 (stereo unspecified)	786-0 renal	NOT MET
CCN(CC)/C(=C\Cl)Nc1ccccn1	786-0 renal	MET
NC(=S)N/N=C1\C(=O)N(c2cccc([N+](=O)[O-])c2)C(=O)C1C(=O)Nc1cccc([N+](=O)[O-])c1 (stereo unspecified)	786-0 renal	MET
Clc1cccc(Cl)c1C1SCc2nc3cc4ccccc4cc3n21 (stereo unspecified)	786-0 renal	MET
CCN(CC)CCCN1C(=O)c2c(c(C)c3c(oc4cc(O)ccc43)c2C)C1=O	786-0 renal	NOT MET
COc1cc(/C=C2\CCC(C)c3c2nc(N)c(C#N)c3-c2cc(OC)c(OC)c(OC)c2)cc(OC)c1OC (stereo unspecified)	786-0 renal	MET
CC1=C(N(C)C)C(=O)c2nc3n(c2C1=O)CCC3OC(N)=O (stereo unspecified)	786-0 renal	MET
Fc1ccc(Nc2ccc3cc(OCCCN4CCOCC4)ccc3n2)cc1F	786-0 renal	NOT MET
CC1=CC[C@@]2(C)[C@@H]([C@@H]1C)[C@H]1CC[C@@H]3[C@@]4(C)CC[C@H](O)C(C)(C)[C@@H]4CC[C@@]3(C)[C@]1(C)C[C@@H]2O	786-0 renal	MET

###

# System: SK-MEL-5 melanoma
# experimental protocol: NCI tumour cell line growth inhibition, 48 h
result type: log10 TGI (log10 of the value in µM)

molecule	log10 TGI
CCN(CC)CCN1CCN=c2c3cc(OC)ccc3n3cnc4ccc1c2c43	0.51
CN1CCN(Cc2ccc(NC(=O)c3[nH]ncc3Nc3ccnc4ccsc34)cc2)CC1	1.06
CC1(C)CC2=NOS3=C2C(=NO3)C1c1ccccn1 (centres undefined)	1.54
NC(=Nc1ccc(Cl)c(Cl)c1)c1ccccc1N	1.74
COc1c(C(CC(C)C)OC(C)=O)ccc2c1C(=O)OCc1cc(C)cc(O)c1O2 (centres undefined)	1.37
COc1cc(/C=C2\C[C@H]3[C@@H]4CC=C5C[C@@H](OC(C)=O)CC[C@]5(C)[C@H]4CC[C@]3(C)[C@H]2OC(C)=O)ccc1OCCCn1ccnc1	1.19

###

# TGI per entry
# Tested on: SF-295 CNS
# experimental protocol: NCI tumour cell line growth inhibition, 48 h

compound	TGI
CC1CC(C)C(=O)C(C(=O)CC2CC(=O)NC2=O)C1 (centres undefined)	> 100 µM
Cc1cc(S(=O)(=O)/N=C(\N)n2nc(C)c(C)c2C)c(SCc2ccccc2)cc1Cl	> 100 µM
CC[N+](CC)(CC)Cc1cn(S(=O)(=O)c2ccccc2)c2ccccc12	> 100 µM
O[C@H]1[C@H]2[C@H](O)CCCN2C[C@H]1O	> 100 µM
O=C(Nc1nc(-c2ccc(Cl)cc2)cs1)c1ccc(O)c(O)c1	26.2 µM
CCOC(=O)C1C(C(C)C)C2(C#N)C(=N)OC1(C)C2(C#N)C#N (centres undefined)	> 100 µM
CC(=O)OCCC[C@@H]1C(=C(C)C)CCC2[C@@]1(C)CC[C@@]1(C)C[C@](C)(CCC=C(C)C)CC[C@]21C (some centres undefined)	> 100 µM
COc1ccc(C2c3cc4c(cc3OC(O)(CO)C2C(=O)O)OCO4)c(OC)c1OC (centres undefined) (tested in a mixture with another compound)	> 100 µM
C/C(=C\c1ccn(-c2ccc(N)cc2C(F)(F)F)n1)[C@@H]1C[C@@H]2O[C@]2(C)CCC[C@H](C)[C@H](O)[C@@H](C)C(=O)C(C)(C)[C@@H](O)CC(=O)O1	2.19 µM
NC1=NN(c2ccccc2)C(=O)C1C(=O)C(=O)Nc1cccc(C(F)(F)F)c1 (centres undefined)	> 100 µM
N#CCc1[nH]nc2nc(SCc3ccccc3)nc(N3CCCCC3)c12	35.3 µM
C=C(CO)[C@H]1CC/C(C)=C/CC/C(C)=C/C/C=C(\C)[C@H](O)C1	> 100 µM
CC1=C([Se]CC(OC(=O)[C@@H](CSSC(C)(C)C)NC(=O)C(C)(C)C)C(=O)NCCCCCC(=O)OCc2ccccc2)C(=O)c2ccccc2C1=O (some centres undefined)	1.95 µM
N=C(N)C(N=Nc1ccccc1)C(=N)N (centres undefined)	> 100 µM
c1ccc2c(NCCCCCCCCNc3cccc4ccccc34)cccc2c1	> 100 µM
N#Cc1c(SCc2ccccc2)nc2[nH]c(=S)[nH]c(=S)c2c1-c1ccco1	> 100 µM
CC(C(O)c1ccccc1)N(C)/N=N/c1nc2c([nH]1)c(=O)n(C)c(=O)n2C (centres undefined)	> 100 µM
CC1=Cc2cc3[n-]c(cc4nc(cc5[n-]c(cc1n2)c(C)c5CCC(=O)O)C(CCC(=O)O)=C4C)cc3C.[Cu+2]	> 96.9 µM
COc1ccc(C(=O)c2ccc(OC)cc2OC)cc1	9.4 µM

These measurements were taken from PubChem BioAssay (NCI).
